tgt: T1, soluble human recombinant CD4 expressed in baculovirus (human, UniProt P01730 26-396, limits assumed)
T1 construct: Coated on plates for the ELISA and covalently immobilised on the sensor for BIAcore; Only called soluble; also called soluble CD4; CD4 expressed in the baculovirus
assay.name: SPR (BIAcore), CD4 immobilised
measure.name: pKd
pKd field: float, defined as -log10 of concentration (mol/L).

Q) Query: pKd; subject: mutant Fab W103-H of the 13B8.2 antibody (Fab, V domains shown, Chimeric Fab with human CH1-γ1 and Cκ; baculovirus/Sf9) VH: QVQLKQSGPGLVQPSQSLSITCTVSGFSLTTFGVHWVRQSPGKGLEWLGVIWRSGITDYNVPFMSRLSITKDNSKSQVFFKLNSLQPDDTAIYYCAKNDPGTGFAYAGQGTLVTVSA VL: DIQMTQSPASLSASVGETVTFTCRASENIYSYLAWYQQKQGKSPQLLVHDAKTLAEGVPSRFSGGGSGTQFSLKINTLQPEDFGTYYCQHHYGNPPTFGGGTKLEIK
A) 5.39

Q) Query: pKd; subject: mutant Fab Y32-L of the 13B8.2 antibody (Fab, V domains shown, Chimeric Fab with human CH1-γ1 and Cκ; baculovirus/Sf9) VH: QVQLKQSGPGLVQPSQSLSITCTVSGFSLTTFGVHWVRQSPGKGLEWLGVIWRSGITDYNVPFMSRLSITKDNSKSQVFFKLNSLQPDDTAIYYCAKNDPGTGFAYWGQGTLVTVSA VL: DIQMTQSPASLSASVGETVTFTCRASENIYSALAWYQQKQGKSPQLLVHDAKTLAEGVPSRFSGGGSGTQFSLKINTLQPEDFGTYYCQHHYGNPPTFGGGTKLEIK
A) 5.05

Q) Query: pKd; subject: mutant Fab W36-H of the 13B8.2 antibody (Fab, V domains shown, Chimeric Fab with human CH1-γ1 and Cκ; baculovirus/Sf9) VH: QVQLKQSGPGLVQPSQSLSITCTVSGFSLTTFGVHAVRQSPGKGLEWLGVIWRSGITDYNVPFMSRLSITKDNSKSQVFFKLNSLQPDDTAIYYCAKNDPGTGFAYWGQGTLVTVSA VL: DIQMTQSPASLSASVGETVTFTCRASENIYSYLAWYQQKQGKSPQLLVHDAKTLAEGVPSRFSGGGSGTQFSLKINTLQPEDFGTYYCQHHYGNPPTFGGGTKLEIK
A) 7.81

All values here come from patent US20050226874A1.
